All values here come from ChEMBL document CHEMBL5126515.

Tested on: Plasma
run_description: Anticoagulant activity in mouse plasma assessed inhibition of thrombin-induced platelet aggregation
Assay type: functional, cell-free
quantity: IC50 (nM)
Give bare numbers, in nM.

Guide cases for IC50, answers given:
compound	quantity	reading_unit	measured_result
CCOC(=O)CCN(C(=O)c1ccc2c(c1)nc1n2CCN(CC(=O)OCC)C1Cc1ccc(/C(N)=N/CC(=O)OCC)cc1)c1ccccc1 (stereo not given)	IC50	nM	320
CCOC(=O)CCN(C(=O)c1ccc2c(c1)nc1n2CCN(CC(=O)OCc2ccccc2)C1Cc1ccc(/C(N)=N/CC(=O)OCc2ccccc2)cc1)c1ccccc1 (stereo not given)	IC50	nM	470
CCCCCOC(=O)C/N=C(\N)c1ccc(CC2c3nc4cc(C(=O)N(CCC(=O)OCC)c5ccccc5)ccc4n3CCN2CC(=O)OCCCCC)cc1 (stereo not given)	IC50	nM	570
Cn1c(CNc2ccc(C(=N)N)cc2)nc2cc(C(=O)N(CCC(=O)O)c3ccccn3)ccc21	IC50	nM	600

Note: attention shifts to another entry.
// sample CCOC(=O)CCN(C(=O)c1ccc2c(c1)nc1n2CCN(CC(=O)OC(C)(C)C)C1Cc1ccc(/C(N)=N/CC(=O)OC(C)(C)C)cc1)c1ccccc1 (stereo not given) , its IC50 was 110

====

test_target: Prothrombin (Homo sapiens)
run_description: Inhibition of thrombin in human plasma
quantity: pIC50
Give bare numbers, as −log10 of the molar value.

For CC1(C)[C@@H](OC(=O)c2ccccc2C(=O)O)CC[C@]2(C)[C@H]3C(=O)C=C4[C@@H]5C[C@@](C)(C(=O)O)CC[C@]5(C)CC[C@@]4(C)[C@]3(C)CC[C@@H]12 the molecule record lists pIC50 as 3.94

====

Tested on: Plasma
run_description: Antiplatelet aggregation activity in rabbit plasma incubated for 5 mins
Assay type: functional, cell-free
cond: Oryctolagus cuniculus
Could you please report measured IC50 for the items listed next?
Hey, just the number and the unit after it is fine.

smiles_input	IC50
CCN1C(=O)COc2cc(NC(=O)c3ccccc3)ccc21	8.99 µM

// next item, IC50 requested
Measured IC50 of CCN1C(=O)COc2cc(NC(=O)CCCl)ccc21 : 8.94 µM

====

Data export: IC50 values recorded with Coagulation factor X (Mus musculus).
Sequence (O88947 41-180 limits assumed): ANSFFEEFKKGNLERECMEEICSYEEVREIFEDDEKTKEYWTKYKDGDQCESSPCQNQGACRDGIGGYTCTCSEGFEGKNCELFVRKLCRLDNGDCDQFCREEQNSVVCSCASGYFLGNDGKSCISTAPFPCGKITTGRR
Sequence (O88947 232-481 limits assumed): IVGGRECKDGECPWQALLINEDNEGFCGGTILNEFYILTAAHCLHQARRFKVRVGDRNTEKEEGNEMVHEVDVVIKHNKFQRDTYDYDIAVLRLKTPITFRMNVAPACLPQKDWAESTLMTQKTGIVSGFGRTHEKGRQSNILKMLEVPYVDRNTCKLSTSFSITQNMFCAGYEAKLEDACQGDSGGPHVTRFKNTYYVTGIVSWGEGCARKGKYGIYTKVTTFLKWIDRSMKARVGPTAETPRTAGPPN
Numbers only, in nM.

smiles_input	reading_unit	IC50
CC(=N)N1CCC(Oc2ccc3c(c2)C(=O)NS(=O)(=O)N3CC(=O)Nc2cccc(C(=N)N)c2)CC1	nM	2.5
CC(=N)N1CCC(Oc2ccc3c(c2)C(=O)NS(=O)(=O)N3C/C=C/c2cccc(C(=N)N)c2)CC1	nM	2.8

Then this compound:
Documented IC50 of CC(=N)N1CCC(Oc2ccc3c(c2)C(=O)NS(=O)(=O)N3Cc2ccc3ccc(C(=N)N)cc3c2)CC1 : 2.1

====

Would you mind telling me the reported Time of each entry?
Tested on: Plasma
run_description: Anticoagulant activity in rabbit plasma assessed as activated partial thromboplastin time
Assay type: functional, Oryctolagus cuniculus
Numbers only, in s.

For every item in the list below, what is its measured Time?
1. COc1cc(O)c2c(=O)c(O)c(-c3ccc(O)c(O)c3)oc2c1 [RHAMNETIN]
2. COc1cc(OC)c2c(=O)c(O)c(-c3ccc(O)c(O)c3)oc2c1
3. COc1ccc(-c2oc3cc(O)cc(O)c3c(=O)c2O)cc1OC

[6.8, 6.9, 5.8]

COc1cc(O)cc2oc(-c3ccc(O)c(O)c3)c(O)c(=O)c12 on Plasma gives Time = 7.6

====

test_target: P2Y purinoceptor 1 (Homo sapiens)
Sequence (P47900 whole entry): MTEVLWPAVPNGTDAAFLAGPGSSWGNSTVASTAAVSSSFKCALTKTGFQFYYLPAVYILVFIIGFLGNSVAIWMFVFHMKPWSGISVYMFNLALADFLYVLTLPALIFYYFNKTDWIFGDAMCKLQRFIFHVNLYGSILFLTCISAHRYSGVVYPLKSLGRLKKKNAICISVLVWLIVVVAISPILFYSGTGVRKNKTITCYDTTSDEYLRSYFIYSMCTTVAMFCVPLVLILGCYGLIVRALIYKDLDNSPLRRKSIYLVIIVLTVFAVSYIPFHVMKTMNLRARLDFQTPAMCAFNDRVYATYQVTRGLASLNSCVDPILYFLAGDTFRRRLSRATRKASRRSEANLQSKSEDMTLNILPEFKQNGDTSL
run_description: Antagonist activity at P2Y1 receptor (unknown origin)
quantity: IC50 (nM)
Give bare numbers, in nM.

Batch of 3 compounds: report IC50 for each.
1. CNc1nc(Cl)nc2c1ncn2CCC(COP(=O)(O)O)COP(=O)(O)O
2. CNc1nc(Cl)nc2c1ncn2CC(COP(=O)(O)O)COP(=O)(O)O
3. CNc1ncnc2c1ncn2CC(COP(=O)(O)O)COP(=O)(O)O

1: 840; 2: 480; 3: 1090

Data point: CNc1ncnc2c1ncn2CCC(COP(=O)(O)O)COP(=O)(O)O ; IC50 = 1600

====

Species: Rattus norvegicus
run_description: Antiplatelet aggregration activity in arteriovenous bypass thrombosis rat model assessed as aggregation inhibition rate relative to control
Format: functional
Decision: inhibition (INH) >= 20% yields rule met, all other cases yield rule not met.

Answered examples (2):
molecule	group_label
CC(=O)Oc1ccccc1C(=O)Oc1ccc(/C=C/C(=O)OCCCCO[N+](=O)[O-])cc1	rule met
COc1cc(/C=C/C(=O)OCc2c(-c3ccccc3)no[n+]2[O-])ccc1OC(=O)c1ccccc1OC(C)=O	rule not met

Decide: is the reported value of inhibition (INH) for CC(=O)Oc1ccccc1C(=O)O [ASPIRIN] equal to or greater than 20%?
rule not met

Does the molecule COc1cc(/C=C/C(=O)OC2COC3C(O[N+](=O)[O-])COC23)ccc1OC(=O)c1ccccc1OC(C)=O (stereo unspecified) have recorded inhibition (INH) that is 20% or more?
rule met

Determine whether measured inhibition (INH) meets or exceeds 20% for COc1cc(/C=C/C(=O)OCCOCCO[N+](=O)[O-])ccc1OC(=O)c1ccccc1OC(C)=O
rule not met

# check: inhibition (INH) of COc1cc(/C=C/C(=O)OCCCCCCCCCOc2no[n+]([O-])c2S(=O)(=O)c2ccccc2)ccc1OC(=O)c1ccccc1OC(C)=O is greater than or equal to 20%
rule not met

====

So I've got a bunch of compounds here, and I need their pIC50 values.
run_description: Antiplatelet activity in platelet (unknown origin) assessed as inhibition of ADP-induced platelet aggregation relative to control
Assay type: functional, cell-based
cond: platelet
Numbers only, as −log10 of the molar value.

compound	measured_result
CCCN(CCC)CC(=O)N1CCN(c2ccc(C3=NNC(=O)CC3C)cc2)CC1 (configuration not stated)	8.10

Kindly consider the entry below.
Consider CC(C)[C@](O)(C(=O)OCC1=CCN2CC[C@@H](O)[C@@H]12)[C@H](C)O . Its measured pIC50 is 6.31
